- MEASUREMENT_NOTES: NCI Yeast Anticancer Drug Screen. Data for the bub3 strain (AID 167)
- EXPERIMENTAL_PARAMETERS: S. cerevisiae bub3 mutant strain, at 50.0 µM, hits give high values
This is part of a sample that, as a whole, favours compounds with a hit. Of some 79,000 tested, about 15% had one in any assay.
MEASURE_NAME: growth inhibition (%)
// return numeric value only (unit: %, not printed)

Q) Any idea what its growth inhibition is? The compound is O=[N+]([O-])c1ccc(/C=C2/c3ccccc3-c3nc4ccccc4cc32)cc1
A) 7.3

Q) Any idea what its growth inhibition is? The compound is Cn1c2c(c3ccccc31)=NN1CCN=C1N=2
A) 17.2

Q) Any idea what its growth inhibition is? The compound is NC(=O)N/N=C(\CCC(=O)N(Cc1ccccc1)Cc1ccccc1)CC(=O)c1ccc(F)cc1
A) -7.9

Q) Any idea what its growth inhibition is? The compound is O=C(O)CNCCO
A) 22.2

Q) Any idea what its growth inhibition is? The compound is CCCCS/C=C\SCCCC
A) 6.7

Q) Any idea what its growth inhibition is? The compound is COc1ccc(CCCCC(=O)O)cc1
A) -7.55

Q) Any idea what its growth inhibition is? The compound is C[N+]1(CC[N+]2(C)CCCC2c2cccnc2)CCCC1c1cccnc1 (configuration not stated)
A) 28

Q) Any idea what its growth inhibition is? The compound is NC(=O)c1nc(C2OC(CO)C(O)C2O)cs1 (configuration not stated)
A) 6.75

Q) Any idea what its growth inhibition is? The compound is NC1=Nc2ccccc2Sc2nnc(-c3ccc(Cl)cc3)n21
A) -15.2

Q) Any idea what its growth inhibition is? The compound is Cc1cccc(NC(=O)/C=C/c2ccccc2)n1
A) 9.15

Q) Any idea what its growth inhibition is? The compound is Cc1cc2c(C(C)C)c(O)c(O)c(C=Nc3ccc(-c4ccccc4)cc3)c2c(O)c1-c1c(C)cc2c(C(C)C)c(O)c(O)c(C=Nc3ccc(-c4ccccc4)cc3)c2c1O
A) -8.5

Q) Any idea what its growth inhibition is? The compound is O=C1NCC(c2ccccc2)(c2ccccc2)O1
A) 4.45
